- System: mouse T lymphocytes
- protocol-details: T-cell proliferation assay (ionomycin plus PMA induced T-cell stimulation, tritiated thymidine uptake)
- Format: cell-based, mouse (C57B1/6)
- condition-description: Mus musculus, T-lymphocyte; T-cell proliferation; general range; read-out: IC50, generally in the range of
pIC50: −log10 of the molar value.
observed-property: pIC50

IN: Look up and state reported pIC50 for CCC1C=C(C)CC(C)CC(O)C(O)C2CC(C)C(O)(O2)C(=O)C(=O)N2CCCCC2C(=O)OC(C(C)=CC2CCC(O)C(O)C2)C(C)C(O)CC1=O (stereo not shown)
OUT: 5.85 to 6.00

* * *

- Tested on: mouse T lymphocytes
- protocol-details: T-cell proliferation assay (ionomycin plus PMA induced T-cell stimulation, tritiated thymidine uptake)
- Type: cell-based, mouse (C57B1/6)
- condition-description: Mus musculus, T-lymphocyte; T-cell proliferation; read-out: IC50
- Procedure: The principle of this assay is to measure the proliferation of mouse T lymphocytes stimulated with the combination of ionomycin plus PMA. […] Purified T lymphocytes were resuspended at 2.5×10^5 cells/ml in complete culture medium composed of RPMI 1640 medium with 10% heat-inactivated fetal calf serum, […], 1 mM sodium pyruvate, 2×10^-5 M 2-mercaptoethanol and 50 μg/ml gentamycin. […] The proliferation of T lymphocytes was assessed by measurement of tritiated thymidine incorporation. […]
observed-property: IC50 (nM)
Express the result in nM but write the number alone.

IN: Tell me IC50 of CCC1C=C(C)CC(C)CC(O)C(O)C2CC(C)C(O)(O2)C(=O)C(=O)N2CCCCC2C(=O)OC(C(C)=CC2CCC(O)C(O)C2)C(C)C(O)CC1=O (stereo not shown) when tested on mouse T lymphocytes.
OUT: 1190
